system: Salmonella; experiment: In vitro antibacterial activity, dilution in Mueller Hinton Agar (Table I); assay type: cell-based; conditions: pH 7.4, C2 Cuban, Mueller Hinton Agar pH 7.4
Entries and their measured MIC follow.
Give the number; µg/mL is assumed, so skip it.

Examples from the recorded data:
NCc1[nH]c2cc(Br)c(Cl)cc2c1-c1ccccc1 [D]: 3
NCc1[nH]c2ccc(Cl)cc2c1-c1ccccc1 [C]: 3
NCc1[nH]c2ccc(Cl)cc2c1-c1c(F)cccc1F [B]: 7.5
NCc1[nH]c2ccc(Cl)cc2c1-c1ccc(Cl)cc1Cl [E]: 3

Next molecule, please.
Tell me the measured MIC of NCc1[nH]c2ccc(Cl)cc2c1-c1ccccc1F [A] , please.
7.5

----------
Entries and their measured LD50 follow.
Experiment: Acute toxicity in mice (Table V)
Details: mouse, in vivo, sc, S.C.
Experimental: All the tests were carried out and (when necessary) scored under standard conditions. "MIC" means "minimum inhibitory concentration." Acute Toxicity of 2-aminoalkyl-3-phenylindoles of the formula I
Give the number; mg/kg is assumed, so skip it.

Examples from the recorded data:
NCc1[nH]c2ccc(Cl)cc2c1-c1ccc(Cl)cc1Cl: 540
NCc1[nH]c2ccc(Cl)cc2c1-c1c(F)cccc1F: 900

Tell me the measured LD50 of NCc1[nH]c2cc(Br)c(Cl)cc2c1-c1ccccc1 , please.
750

Follow-up entry: NCc1[nH]c2ccc(Cl)cc2c1-c1ccccc1F
850

Follow-up entry: NCc1[nH]c2ccc(Cl)cc2c1-c1ccccc1
600

----------
Entries and their measured MIC follow.
tested on: Candida albicans; assay: In vitro Anti-Candida activity, dilutions in Sabouraud's Dextrose Agar (Table III); format: cell-based; conditions: 48 h, strain Atkisson, after 48 hours
Give the number; µg/mL is assumed, so skip it.

NCc1[nH]c2ccc(Cl)cc2c1-c1c(F)cccc1F: 75

Next compound, please.
Tell me the measured MIC of NCc1[nH]c2cc(Br)c(Cl)cc2c1-c1ccccc1 , please.
150

----------
system: Candida albicans; assay: In vitro Anti-Candida activity, dilutions in Sabouraud's Dextrose Agar (Table III); assay type: cell-based; settings: 48 h, strain Bevan, after 48 hours
experimentalReadout: MIC (µg/mL)
Give the number; µg/mL is assumed, so skip it.

Examples from the recorded data:
NCc1[nH]c2ccc(Cl)cc2c1-c1c(F)cccc1F [B]: 150
NCc1[nH]c2cc(Br)c(Cl)cc2c1-c1ccccc1 [D]: 150

Tell me the measured MIC of NCc1[nH]c2ccc(Cl)cc2c1-c1ccccc1 [C] , please.
75

Follow-up entry: NCc1[nH]c2ccc(Cl)cc2c1-c1ccccc1F [A]
75

Follow-up entry: NCc1[nH]c2ccc(Cl)cc2c1-c1ccc(Cl)cc1Cl [E]
37.5

----------
The listing below reports MIC for molecules tested on Microsporum distortum.

Examples from the recorded data:
NCc1[nH]c2ccc(Cl)cc2c1-c1c(F)cccc1F [B]: 17.5 mg/L
NCc1[nH]c2ccc(Cl)cc2c1-c1ccccc1 [C]: 7.5 mg/L
NCc1[nH]c2ccc(Cl)cc2c1-c1ccc(Cl)cc1Cl [E]: 3 mg/L

Tell me the measured MIC of NCc1[nH]c2ccc(Cl)cc2c1-c1ccccc1F [A] , please.
3 mg/L

Follow-up entry: NCc1[nH]c2cc(Br)c(Cl)cc2c1-c1ccccc1 [D]
3 mg/L
